assayMetric: Kd (nM)
Give just the numeric value; nM need not be written.

-- ask State its Kd on UniProtKB P43405: COCCOCCOCCOc1cc(Nc2nccc(Oc3ccc(NC(=O)Nc4cc(C(C)(C)C)cc(NS(C)(=O)=O)c4OC)c4ccccc34)n2)cc(OC)c1 [Example 4]
-- reply 14

-- ask State its Kd on UniProtKB P43405: COc1c(NC(=O)Nc2ccc(Oc3ccnc(Nc4ccccc4)c3)c3ccccc23)cc(C(C)(C)C)cc1C(=O)NC1COC1 [Example 75]
-- reply 8.8

-- ask State its Kd on UniProtKB P43405: COCCOCCOCCNC(=O)c1cc(Nc2cc(Oc3ccc(NC(=O)Nc4cc(C(C)(C)C)cc(NS(C)(=O)=O)c4OC)c4ccccc34)ccn2)cc(OC)c1 [Example 3]
-- reply 10

-- ask State its Kd on UniProtKB P43405: COc1cc(Nc2cc(Oc3ccc(NC(=O)Nc4cc(C(C)(C)C)cc(NS(C)(=O)=O)c4OC)c4ccccc34)ccn2)cc(C(=O)NCCN2CCOCC2)c1 [Example 27]
-- reply 27

* * *

biological target: UniProt:P08684; assay: CYP3A4 inhibition study; type: in vitro ADME; settings: CYP3A4, 30 min preincubation
Sequence (P08684 whole entry): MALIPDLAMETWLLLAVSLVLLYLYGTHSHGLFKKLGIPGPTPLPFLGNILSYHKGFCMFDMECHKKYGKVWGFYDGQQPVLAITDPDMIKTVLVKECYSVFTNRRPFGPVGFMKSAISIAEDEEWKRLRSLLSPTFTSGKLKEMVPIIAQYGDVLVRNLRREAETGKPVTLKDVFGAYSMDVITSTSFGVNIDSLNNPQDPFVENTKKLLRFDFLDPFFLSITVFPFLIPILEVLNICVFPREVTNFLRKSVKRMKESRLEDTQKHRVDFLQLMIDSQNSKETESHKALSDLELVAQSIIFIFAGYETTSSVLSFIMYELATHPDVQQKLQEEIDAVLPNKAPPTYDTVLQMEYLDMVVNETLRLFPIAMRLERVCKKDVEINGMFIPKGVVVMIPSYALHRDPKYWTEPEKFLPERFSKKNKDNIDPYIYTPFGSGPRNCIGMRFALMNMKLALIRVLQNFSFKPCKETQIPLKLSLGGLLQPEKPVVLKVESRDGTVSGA
assayMetric: pIC50
Scale: negative log10 of molar concentration, which is what pIC50 denotes.

-- ask I'd like to know its pIC50. The molecule in question is COc1cc(Nc2cc(Oc3ccc(NC(=O)Nc4cc(C(C)(C)C)cc(NS(C)(=O)=O)c4OC)c4ccccc34)ccn2)cc(C(=O)NCCN2CCOCC2)c1 [Example 27]
-- reply 5.05

-- ask I'd like to know its pIC50. The molecule in question is COCCOCCOCCOc1cc(Nc2nccc(Oc3ccc(NC(=O)Nc4cc(C(C)(C)C)cc(NS(C)(=O)=O)c4OC)c4ccccc34)n2)cc(OC)c1 [Example 4]
-- reply 5.57

* * *

assay: Plasma pharmacokinetics in rats, single intravenous or oral administration; type: in vivo, rat (male Wistar); details: male, Wistar, rat, plasma, po, 5 mg/kg; read-out: Median plasma concentration
assayMetric: concentration at 2 h

-- ask I'd like to know its concentration at 2 h. The compound in question is `COc1c(NC(=O)Nc2ccc(Oc3ccnc(Nc4ccccc4)c3)c3ccccc23)cc(C(C)(C)C)cc1C(=O)NC1COC1`
-- reply 1.2 ng/mL

* * *

target: p38 MAPKα (MAPK14) (Homo sapiens (Human), UniProt Q16539); assay: p38 MAPKα enzyme inhibition (FRET, Z-LYTE; Method 2); format: biochemical
Sequence (Q16539 whole entry): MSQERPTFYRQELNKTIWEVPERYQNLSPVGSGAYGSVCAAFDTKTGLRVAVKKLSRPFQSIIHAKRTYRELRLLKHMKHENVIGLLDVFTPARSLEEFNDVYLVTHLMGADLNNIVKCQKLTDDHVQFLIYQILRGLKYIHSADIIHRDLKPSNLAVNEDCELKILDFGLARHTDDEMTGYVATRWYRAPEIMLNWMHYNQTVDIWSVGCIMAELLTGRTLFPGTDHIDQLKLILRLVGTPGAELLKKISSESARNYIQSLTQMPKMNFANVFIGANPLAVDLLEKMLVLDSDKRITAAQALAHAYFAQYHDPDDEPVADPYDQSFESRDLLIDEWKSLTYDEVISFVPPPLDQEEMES
assayMetric: IC50 (nM)
Give just the numeric value; nM need not be written.

-- ask State its IC50 on p38 MAPKα (MAPK14) (Homo sapiens (Human), UniProt Q16539): `COc1c(NC(=O)Nc2ccc(Oc3ccnc(Nc4ccccc4)c3)c3ccccc23)cc(C(C)(C)C)cc1C(=O)NC1COC1`
-- reply 123

-- ask State its IC50 on p38 MAPKα (MAPK14) (Homo sapiens (Human), UniProt Q16539): `C#Cc1cc(Nc2nccc(Oc3ccc(NC(=O)Nc4cc(C(C)(C)C)cc(NS(C)(=O)=O)c4OC)c4ccccc34)n2)cc(C(=O)NCCN2CCOCC2)c1`
-- reply 118

-- ask State its IC50 on p38 MAPKα (MAPK14) (Homo sapiens (Human), UniProt Q16539): `C#Cc1cc(Nc2nccc(Oc3ccc(NC(=O)Nc4cc(C(C)(C)C)cc(NS(C)(=O)=O)c4OC)c4ccccc34)n2)cc(C(=O)N[C@@H](C)CN2CCOCC2)c1`
-- reply 286

-- ask State its IC50 on p38 MAPKα (MAPK14) (Homo sapiens (Human), UniProt Q16539): `COCCOCCOCCOc1cc(Nc2nccc(Oc3ccc(NC(=O)Nc4cc(C(C)(C)C)cc(C(=O)NCCN(C)C)c4OC)c4ccccc34)n2)cc(OC)c1`
-- reply 110

-- ask State its IC50 on p38 MAPKα (MAPK14) (Homo sapiens (Human), UniProt Q16539): `C#Cc1cc(Nc2cc(Oc3ccc(NC(=O)Nc4cc(C(C)(C)C)cc(C(N)=O)c4OC)c4ccccc34)ccn2)cc(C(=O)NCCOCCOCCOC)c1`
-- reply 132

-- ask State its IC50 on p38 MAPKα (MAPK14) (Homo sapiens (Human), UniProt Q16539): `COCCOCCOCCOc1cc(Nc2cc(Oc3ccc(NC(=O)Nc4cc(C(C)(C)C)cc(C(=O)NCCN(C)C)c4OC)c4ccccc34)ccn2)cc(OC)c1`
-- reply 159

-- ask State its IC50 on p38 MAPKα (MAPK14) (Homo sapiens (Human), UniProt Q16539): `C#Cc1cc(Nc2cc(Oc3ccc(NC(=O)Nc4cc(C(C)(C)C)cc(C(N)=O)c4OC)c4ccccc34)ccn2)cc(C(=O)NCCN2CCOCC2)c1`
-- reply 229

-- ask State its IC50 on p38 MAPKα (MAPK14) (Homo sapiens (Human), UniProt Q16539): `COc1cc(Nc2nccc(Oc3ccc(NC(=O)Nc4cc(C(C)(C)C)cc(NS(C)(=O)=O)c4OC)c4ccccc34)n2)cc(OCCOCCOCCN2CCOCC2)c1`
-- reply 52

-- ask State its IC50 on p38 MAPKα (MAPK14) (Homo sapiens (Human), UniProt Q16539): `C#Cc1cc(Nc2nccc(Oc3ccc(NC(=O)Nc4cc(F)cc(N5CCOCC5)c4)c4ccccc34)n2)cc(C(=O)NCCN2CCOCC2)c1`
-- reply 37

-- ask State its IC50 on p38 MAPKα (MAPK14) (Homo sapiens (Human), UniProt Q16539): `COCCOCCOCCOc1cc(Nc2nccc(Oc3ccc(NC(=O)Nc4cc(C(C)(C)C)cc(C(N)=O)c4OC)c4ccccc34)n2)cc(OC)c1`
-- reply 33

-- ask State its IC50 on p38 MAPKα (MAPK14) (Homo sapiens (Human), UniProt Q16539): `COCCOCCOCCOc1cc(Nc2nccc(Oc3ccc(NC(=O)Nc4cc(C(C)(C)C)cc(C(=O)NC5COC5)c4OC)c4ccccc34)n2)cc(OC)c1`
-- reply 170

-- ask State its IC50 on p38 MAPKα (MAPK14) (Homo sapiens (Human), UniProt Q16539): `COCCOCCOCCOc1cc(Nc2nccc(Oc3ccc(NC(=O)Nc4cc(C(C)(C)C)cc(-c5cnn[nH]5)c4OC)c4ccccc34)n2)cc(OC)c1`
-- reply 332

-- ask State its IC50 on p38 MAPKα (MAPK14) (Homo sapiens (Human), UniProt Q16539): `COc1cc(Nc2cc(Oc3ccc(NC(=O)Nc4cc(C(C)(C)C)cc(NS(C)(=O)=O)c4OC)c4ccccc34)ccn2)cc(C(=O)NCC(=O)N2CCOCC2)c1`
-- reply 38

-- ask State its IC50 on p38 MAPKα (MAPK14) (Homo sapiens (Human), UniProt Q16539): `COCCOCCOCCOc1cc(Nc2cc(Oc3ccc(NC(=O)Nc4cc(C(C)(C)C)cc(C(=O)NC5COC5)c4OC)c4ccccc34)ccn2)cc(OC)c1`
-- reply 216

-- ask State its IC50 on p38 MAPKα (MAPK14) (Homo sapiens (Human), UniProt Q16539): `COc1cc(Nc2cc(Oc3ccc(NC(=O)Nc4cc(C(C)(C)C)cc(NS(C)(=O)=O)c4OC)c4ccccc34)ccn2)cc(C(=O)NCCCN2CCOCC2)c1`
-- reply 140

-- ask State its IC50 on p38 MAPKα (MAPK14) (Homo sapiens (Human), UniProt Q16539): `CNC(=O)c1cc(C(C)(C)C)cc(NC(=O)Nc2ccc(Oc3ccnc(Nc4cc(OC)cc(OCCOCCOCCOC)c4)c3)c3ccccc23)c1OC`
-- reply 26

-- ask State its IC50 on p38 MAPKα (MAPK14) (Homo sapiens (Human), UniProt Q16539): `CNC(=O)c1cc(C(C)(C)C)cc(NC(=O)Nc2ccc(Oc3ccnc(Nc4cc(OC)cc(OCCOCCOCCOC)c4)n3)c3ccccc23)c1OC`
-- reply 28

-- ask State its IC50 on p38 MAPKα (MAPK14) (Homo sapiens (Human), UniProt Q16539): `COc1cc(Nc2cc(Oc3ccc(NC(=O)Nc4cc(C(C)(C)C)cc(NS(C)(=O)=O)c4OC)c4ccccc34)ccn2)cc(C(=O)NCCN2CCOCC2)c1`
-- reply 41

-- ask State its IC50 on p38 MAPKα (MAPK14) (Homo sapiens (Human), UniProt Q16539): `C#Cc1cc(Nc2cc(Oc3ccc(NC(=O)Nc4cc(C(C)(C)C)cc(C(=O)NC)c4OC)c4ccccc34)ccn2)cc(C(=O)NCCN2CCOCC2)c1`
-- reply 140
